- Test system: SR
- test.method.notes: NCI tumour cell line growth inhibition, 48 h
The source made the active and inactive calls. Rule as the data show it: active = GI50 up to about 1.1 µM and inactive = higher.
Form entry, call: pick from label 1 for active, label 0 for inactive

Qu. Test call for this compound, please: CCOC(=O)C(C)c1nc2cc3cccnc3c(Cl)c2[nH]c1=O (centres undefined)
Ans. label 0

Qu. Test call for this compound, please: O=[N+]([O-])c1cccc(C2ON2C2CCCCC2)c1 (centres undefined)
Ans. label 0

Qu. Test call for this compound, please: COC(=O)n1c(=O)n(-c2ccccc2)c(=O)n1C(=O)OC
Ans. label 0

Qu. Test call for this compound, please: N#Cc1c(Cl)cccc1Oc1ccc(S(=O)(=O)/N=C(\NN)Nc2ccc(Cl)cc2)cc1
Ans. label 1

Qu. Test call for this compound, please: Cc1cc2nc(C#N)c(N3CCN(c4ccc([N+](=O)[O-])cc4)CC3)nc2cc1C
Ans. label 0

Qu. Test call for this compound, please: Cc1cccc2c1CCC21OC(=O)c2c1ccc1ccccc21 (centres undefined)
Ans. label 0

Qu. Test call for this compound, please: O=C1CC(c2ccccc2)NCCCCN2CC(CN1)C(C(O)c1ccccc1)C2=O (centres undefined)
Ans. label 0

Qu. Test call for this compound, please: CC(C)(C)c1cc(Br)c(O)c(CN(Cc2cc(C(C)(C)C)cc(Br)c2O)C2CCCCC2)c1
Ans. label 0

Qu. Test call for this compound, please: C[C@@H]1C[C@H](O)[C@]2(O)O[C@@H]3C[C@@]4(C=O)[C@@H](CC=C5[C@@H]4CC[C@]4(C)[C@@H](C6=CC(=O)OC6)CC[C@]54O)C[C@H]3O[C@@H]2O1
Ans. label 1

====

- Tested on: SK-MEL-28
- test.method.notes: NCI tumour cell line growth inhibition, 48 h
Calls of active or inactive are those of the source. Rule as the data show it: active = GI50 up to about 1.1 µM and inactive = higher.
assay.readout: GI50

Looking up CC(C)CC1N=C(OCc2ccccc2)OC1=O (stereo not given) , I found its GI50 recorded as > 100 µM (inactive)

Looking up N#Cc1ccccc1NC(=O)C(=O)C(C(=O)c1ccncc1)C1OC(=O)c2ccccc21 (stereo not given) , I found its GI50 recorded as > 100 µM (inactive)

Looking up CC(=O)C(C(=O)c1ccc(C)cc1)[C@H]1OC(C)(C)O[C@H]1[C@H]1COC(C)(C)O1 (stereo not given in full) , I found its GI50 recorded as 6.18 µM (inactive)

Looking up O=C(OCCN1CCCCC1)C(c1ccccc1)C1(O)CCSCC1 (stereo not given) , I found its GI50 recorded as > 100 µM (inactive)

Looking up Nc1ncnc2c1ncn2C1OC(COP(=O)(O)CP(=O)(O)O)C(O)C1O (stereo not given) , I found its GI50 recorded as > 100 µM (inactive)

Looking up NC1=NCC(c2ccccn2)C1c1ccc(F)cc1 (stereo not given) , I found its GI50 recorded as > 100 µM (inactive)

Looking up Cc1ccccc1C(C#N)/C(=N/NC(=O)c1cc2ccccc2cc1O)C(=O)Nc1cccc(Cl)c1 (stereo not given) , I found its GI50 recorded as 25.1 µM (inactive)

Looking up CN1C(=O)c2c(ccc3c2OCO3)C2C(O)Cc3cc4c(cc3C21)OCO4 (stereo not given) , I found its GI50 recorded as 3.22 µM (inactive)

Looking up Cc1ccc(Cc2n[nH]c(=O)n2-c2ccccc2)cc1 , I found its GI50 recorded as > 100 µM (inactive)

Looking up NN/C(=N\S(=O)(=O)c1cc(Cl)c(Oc2ccc([N+](=O)[O-])cc2Cl)c(Cl)c1)Nc1ccc(Cl)cc1 , I found its GI50 recorded as 21.5 µM (inactive)
